- EXPERIMENT: Single dose oral and intravenous PK in CD-1 mice (mesylate salt), blood
- Type: in vivo
- TEST_CONTEXT: male, CD-1, mouse, whole blood; intravenous 5 mg/kg
READOUT: half-life
Quick note: unit goes after the number.

Query block: Answer with the recorded half-life of CC(C)C[C@@H]1NCCN([C@@H](CC(C)C)C(=O)N2CCC3(C[C@@H]2C)OCC(CN2CCCC2)CO3)C1=O (stereo partly shown) only.
Result block: 2.3 h

###

- EXPERIMENT: Single dose oral and intravenous PK in CD-1 mice (mesylate salt), blood
- Assay type: in vivo
- Parameters: unit not given here
- TEST_CONTEXT: male, CD-1, mouse, whole blood; oral 50 mg/kg
READOUT: AUC(0-inf)
Numbers only.

Query block: Answer with the recorded AUC(0-inf) of CC(C)C[C@@H]1NCCN([C@@H](CC(C)C)C(=O)N2CCC3(C[C@@H]2C)OCC(CN2CCCC2)CO3)C1=O (stereo partly shown) only.
Result block: 3.38
